Reference source: ChEMBL document CHEMBL1144246

test: Aqueous solubility in phosphate buffer at pH 6.5 by lyophilisation solubility assay; format: physicochemical
reported endpoint: solubility

Asked: I have this compound here, O=C(CCc1ccccc1)NCC(=O)NC(c1ccccc1)c1ccc(Cl)cc1 (centres undefined) , and I need its recorded solubility.
Given back: < 1 µg/mL

Asked: Looking for the measured solubility of O=C(CNC(=O)c1ccc(F)cc1)NC(c1cccc(F)c1)c1cccc(F)c1 , can you help?
Given back: < 1 µg/mL

Asked: Given the entry N#Cc1ccc(C(=O)NCC(=O)NC(c2ccccc2)c2ccc(Cl)cc2)cc1 (centres undefined) , report its measured solubility.
Given back: 7 µg/mL

Asked: I am curious: what solubility value has been reported for O=C(CNC(=O)c1ccc(F)cc1)NC(c1ccccc1)c1cccc(C(F)(F)F)c1 (centres undefined) ?
Given back: < 1 µg/mL

###

assay: Metabolic stability in mouse liver microsomes assessed as intrinsic clearance per mg protein; assay type: ADME, Microsome
Exercise: for every item that follows, state its recorded microsomal CLint.
Enter the number, and then the unit.

Asked: # query: microsomal CLint of entry O=C(CNC(=O)c1ccc(F)cc1)NC(c1ccccc1)c1cccc(C(F)(F)F)c1 (stereo not drawn)
Given back: 19.3 µL/min/mg

Asked: May I ask what microsomal CLint has been recorded for O=C(CCc1ccccc1)NCC(=O)NC(c1ccccc1)c1ccc(Cl)cc1 (stereo not drawn) ?
Given back: 926 µL/min/mg

Asked: Any idea what its microsomal CLint is? The compound is N#Cc1ccc(C(=O)NCC(=O)NC(c2ccccc2)c2ccc(Cl)cc2)cc1 (stereo not drawn)
Given back: 8.6 µL/min/mg
